- Assay system: NADPH oxidase 2 (Homo sapiens)
- Procedure text: NOX2-dependent H2O2 signal modulators, primary screen, NOX inhibitor project, cell-based, HEK293-NOX2, PMA-stimulated, Amplex Red fluorescence (AID 1159); further: test concentration not given here
- Condition: 45 min, higher = more signal, called active from +8 up or from −8 down
Endpoint label: z-score
Reply with the value as a number alone.

Recorded results for 2 compounds are shown here.
C=C(COC)/C(=C/C[C@@H](OC(=O)c1ccncc1)c1ccccc1OCCO)c1cnc2ccccc2c1	0.0701
C=CCNC(=O)[C@@H]1[C@H]2C(=O)O[C@H](c3ccccc3)[C@H](c3ccccc3)N2[C@H](c2ccc(OCCO)cc2)[C@@]12C(=O)N(C(=O)OCCOC)c1ccccc12	0.406

Problem: // returns reported z-score for input `CCCCC(=C=CC[C@H](O)c1cccc(OCCO)c1)C[C@H](O)c1cc(Cl)cc(Cl)c1O`
Solution: -2.45

Problem: Continue with CC(C)c1ccc(NN2C(C(O)C(C)c3ccccc3)C=CC3C(=O)N(c4ccccc4)C(=O)C32)cc1 (stereo not given)
Solution: -0.818

Problem: Continue with CCCCN1CC=CC23O[C@@H]4C=CCCOC(=O)C4[C@H]2C(=O)N(CCO)[C@@H]3C1=O (stereo not given in full)
Solution: 1.09

Problem: Continue with `COc1ccc([Si](C)(C)[C@H]2[C@H](CC(=O)N(CCO)Cc3ccccc3)O[C@@]3(C(=O)N(Cc4ccc(N5C(=O)c6cccc7cccc5c67)cc4)c4ccccc43)[C@@H]2C)cc1`
Solution: 1.52

Problem: Continue with CC1(C)OB(/C=C\CC(OC(=O)c2ccncc2)c2ccccc2)OC1(C)C (stereo not given)
Solution: -2.45

---

- Procedure text: fission yeast growth modulation, primary screen, strain 972, OD600, 24 h, no modulator (AID 1090);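 further: basal condition with compound alone and no growth modifier present; test concentration not given here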
- Condition: S. pombe 972 growth, higher = more signal, called active from +8 up or from −8 down
Binning scheme for z-score: low group (below -0.8), middle group (-0.8 to below 0.4), high group (0.4 or more)

C=C(COC)C(=O)CC[C@@H](OC(=O)c1ccccc1-c1ccccc1C(=O)O)c1ccccc1OCCO	low group
COc1cc2c(cc1OC)CN(C(=O)[C@@H]1[C@H]3C(=O)O[C@H](c4ccccc4)[C@H](c4ccccc4)N3[C@H](c3ccc(O)cc3)[C@@]13C(=O)Nc1ccc(C#CC4=CCCCC4)cc13)CC2	low group
COc1cc(CO)cc(I)c1O[C@H]1C=C(C(=O)NCCO)C[C@@H](N(CCN2CCOCC2)C(=O)C2CCCO2)[C@@H]1O (stereo not given in full)	middle group

Problem: Just checking, what class would you give `COC(=O)[C@@]1(Cc2ccc(OC)cc2)[C@H]2c3cc(C(=O)N(C)C)n(Cc4c(CO)[nH]cc(C)c4=O)c3C[C@H]2CN1C(=O)c1ccccc1` here?
Solution: high group

Problem: Continue with `COc1ccc(C(=O)Nc2ccc(CN3C(=O)[C@]4(O[C@H](CC(=O)N(CCO)Cc5ccccc5)[C@@H]([Si](C)(C)c5ccc(OC)cc5)[C@@H]4C)c4ccccc43)cc2)cc1`
Solution: high group

Problem: Continue with `[N-]=[N+]=Nc1ccccc1C[C@]1(C(N)=O)COC(c2ccc(OCCCO)cc2)=N1`
Solution: low group

Problem: Continue with `C=C(COC)/C(=C/C[C@@H](OC(=O)c1ccncc1)c1ccccc1OCCO)c1cnc2ccccc2c1`
Solution: low group

Problem: Continue with `OCCCc1cc[n+](Cc2cc3c(cc2Br)OCO3)cc1`
Solution: middle group

Problem: Continue with `C[C@@]1([C@@H](NS(=O)(=O)c2cccc3cccnc23)c2ccc(-c3ccccc3)cc2)C[C@H]1C1CCCCC1`
Solution: middle group

---

composite z-score: recorded values
- Assay system: Concanavalin-A (Canavalia ensiformis) (UniProt P02866)
- Sequence (P02866 whole entry, looked up): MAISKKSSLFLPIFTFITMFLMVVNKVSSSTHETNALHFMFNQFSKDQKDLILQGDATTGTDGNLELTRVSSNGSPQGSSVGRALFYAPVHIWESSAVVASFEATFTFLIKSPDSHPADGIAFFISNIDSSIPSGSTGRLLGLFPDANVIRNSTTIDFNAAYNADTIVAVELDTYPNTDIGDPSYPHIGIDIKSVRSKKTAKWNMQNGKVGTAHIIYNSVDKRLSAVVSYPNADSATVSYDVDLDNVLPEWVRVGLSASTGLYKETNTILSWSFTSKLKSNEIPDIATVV
- Procedure text: ConA small-molecule binders, primary screen, artefact control for SMM control protein annotation, biochemical, small-molecule microarray, Alexa647 label, 635 nm (AID 1127);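 further: z combines 667 nm emission intensity with signal-to-noise across three replicate slides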
- Condition: ConA-A647 binding fluorescence, higher = more signal
Reply with the value as a number alone.

CC[C@H]1C2=C3C(CC[C@H]4C(OCc5ccc(F)cc5C(F)(F)F)OC[C@](C)([C@@H]34)N(C(=O)OC(C)(C)C)C2)C(COC(C)=O)C1COC(C)=O (some centres undefined)	0.957
[N-]=[N+]=NCc1ccccc1C[C@@]1(C(N)=O)N=C(c2ccc(OCCCO)cc2)O[C@@H]1c1ccccc1N=[N+]=[N-]	1.12
C=C(CCCC)C(=O)CC[C@@H](OC(C)=O)c1ccc(OCCO)cc1	0.397

Please look at the following compound next.
Problem: // returns reported composite z-score for input `Cc1ccc(S(=O)(=O)N2[C@@H](c3ccccc3)C(C(=O)O)=CC[C@H]2c2ccc(F)cc2)cc1`
Solution: -0.177

---

z-score: recorded values
- Procedure text: S. cerevisiae RM11-1a growth modifiers, primary screen, strain RM11-1a, OD600, basal, 24 h (AID 1177);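 further: cultures grown under basal conditions with no added stressor; test concentration not given here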
- Condition: OD600, 24 h, higher = more signal, called active from +8 up or from −8 down
Reply with the value as a number alone.

Recorded results for 4 compounds are shown here.
CCCCC=C[C@@H](NC(=O)C(C)(C)C)c1ccccc1	2.07
CO[C@H]1O[C@H](CO)[C@@H](OC(=O)CCc2ccccc2)[C@@H]2OC(=O)[C@@H](Cc3ccc4ccccc4c3)C/C=C/C[C@H](Cc3ccc4ccccc4c3)C(=O)O[C@@H]12	-1.11
O=C1NC(=O)C2C1C=CC(C(O)C1CCCCC1)N2Nc1ccccn1 (stereo not given)	0.209
O=C(NC1CC1)[C@@H]1c2ccccc2C(=O)N(C2CCCCC2)[C@H]1c1ccc(CO)cc1	-0.456

Please look at the following compound next.
Problem: // returns reported z-score for input `COCCOC(=O)N1C(=O)[C@@]2(c3cc(C#CCNC(N)=O)ccc31)[C@H](C(N)=O)[C@H]1C(=O)O[C@H](c3ccccc3)[C@H](c3ccccc3)N1[C@@H]2c1ccc(O)cc1`
Solution: 0.532

---

- Procedure text: small-molecule microarray binders of probe aNog, primary screen, biochemical, biotinylated probe, 635/667 nm fluorescence (AID 1115);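 further: probe is biotinylated aNog protein used at 0.15 µg/mL for 1 h at 4 C; z-score combines 667 nm fluorescence of each spot with its signal to noise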
- Condition: higher = more signal
Endpoint label: composite z-score
Reply with the value as a number alone.

COC(=O)C(CC#Cc1ccc2c(c1)[C@]1(C(=O)N2)[C@H](c2ccccc2OCCO)N2[C@H](c3ccccc3)[C@H](c3ccccc3)OC(=O)[C@H]2[C@@H]1C(=O)N1CCN(c2ncccn2)CC1)C(=O)OC	-0.158

Problem: // returns reported composite z-score for input `COc1ccc([Si](C)(C)[C@H]2[C@H](CC(=O)N3CCC[C@H]3CO)O[C@@]3(C(=O)N(C)c4ccccc43)[C@@H]2C)cc1`
Solution: -0.0094

Problem: Continue with `O=C1N(Cc2ccccc2)Cc2ccccc2C[C@@]12COC(c1ccc(OCCCO)cc1)=N2`
Solution: 1.09

Problem: Continue with `[N-]=[N+]=Nc1ccccc1C[C@]1(C(=O)N2CCCCC2)N=C(c2ccc(OCCCO)cc2)O[C@H]1c1ccccc1`
Solution: -0.544

Problem: Continue with CC1(C)OB(/C=C\CC(OC(=O)c2ccncc2)c2ccccc2)OC1(C)C (centres undefined)
Solution: -0.76

---

- Test system: Inhibin beta A chain (activin A)
- Procedure text: INHBA (activin A) binders on microarrays, primary screen, biochemical, small-molecule microarray, 635 nm fluorescence scan (AID 1107);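 further: mouse activin A protein probed at 4.33 µg/mL on printed slides; score merges bound-protein fluorescence near 667 nm with spot signal-to-noise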
- Condition: small-molecule microarray binding, higher = more signal
composite z-score: recorded values
Reply with the value as a number alone.

Recorded results for 6 compounds are shown here.
O=C1O[C@H](c2ccccc2)[C@H](c2ccccc2)N2[C@H]1[C@@H](C(=O)O)[C@]1(C(=O)Nc3ccccc31)[C@H]2c1ccc(OCCO)cc1	0.601
COc1ccc(C(=O)Nc2cccc(CN3C(=O)[C@]4(O[C@H](CC(=O)N(CCO)Cc5ccccc5)[C@@H]([Si](C)(C)c5ccc(OC)cc5)[C@@H]4C)c4ccccc43)c2)cc1	0.794
Cc1ccc(S[C@]2(C(=O)NCc3ccccc3)CC(=O)N(Cc3ccccc3Cl)[C@@H]2c2ccc(CO)cc2)cc1	0.0073
CC(=O)NCCCC[C@@H]1NC(=O)[C@H]2C[C@@H](C(=O)O)[C@@H](c3cccc(OCCO)c3)N2C1=O	0.316
C[C@@]1([C@@H](NS(=O)(=O)c2cccc3cccnc23)c2ccc(-c3ccccc3)cc2)C[C@H]1C1CCCCC1	0.638
C=CCNC(=O)[C@H]1[C@@H]2C(=O)O[C@@H](c3ccccc3)[C@@H](c3ccccc3)N2[C@@H](c2ccc(O)cc2)[C@]12C(=O)Nc1ccc(C#CCC(C(=O)OC)C(=O)OC)cc12	1.08

Please look at the following compound next.
Problem: composite z-score of `CC(C)(C)OC(=O)N1[C@@H](C=C(Br)Br)COC1(C)C` on Inhibin beta A chain (activin A)?
Solution: 0.29

---

- Procedure text: MM1S myeloma cell viability, profiling panel, resazurin fluorescence, basal, 24 h, PK04 Diversity Set (AID 1174);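 further: MM1S multiple myeloma cell line; test concentration not given here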
- Condition: higher = more signal, called active from +8 up or from −8 down
Activity calls are given as the source filed them.
Endpoint label: z-score

Recorded results for 2 compounds are shown here.
C=CCC(OC(C)=O)[C@@H]1[C@@H](N(Cc2ccc(-c3ccccc3)cc2)C(=O)Cc2ccc(OC)cc2)c2cc(OCCCO)ccc2N1C(=O)Cc1ccc(OC)cc1 (stereo partly drawn)	-0.622 (inactive)
C=CCOC(=O)[C@@H]1[C@H]2C(=O)O[C@H](c3ccccc3)[C@H](c3ccccc3)N2[C@H](c2ccc(OCCOC(=O)[C@H]3C[C@H]4C(=O)N[C@@H](CCCCN(C)C)C(=O)N4[C@H]3c3cccc(OCCO)c3)cc2)[C@@]12C(=O)Nc1ccccc12	0.75 (inactive)

Please look at the following compound next.
Problem: // returns reported z-score for input `CCOC(=O)C=C1C[C@@H](c2cccc([N+](=O)[O-])c2)O[C@@H](c2cccc([N+](=O)[O-])c2)O1`
Solution: 0.226 (inactive)
